Where do the numbers come from? From PubChem BioAssay AID588689.

As shown below, each of these molecules has a reported inhibition value.
Test system: Genome polyprotein (Dengue virus type 2 (strain 16681-PDK53))
Protocol: flavivirus cap methylation enzyme inhibition – biochemical, confirmation dose response, primary screen (AID 588689)
Test conditions: Dengue-2 NS5 methyltransferase capping enzyme assay, at 25 µM, hits give high values
The campaign covered roughly 340,000 compounds. About 1,000 (0.29%) were called active. Not all results are given here. Measured potencies and affinities stand elsewhere.
Expressed in %, but write only the number.

Solved cases below.
O=C1ON=C(c2ccccc2)/C1=C/c1ccc(O)c(O)c1	28.7
Cc1ccc(Cc2nc(-c3ccncc3)no2)cc1	-1.78
C#CCOc1ccc(/C=C2/C(=O)NN(c3ccc(F)cc3)C2=O)cc1OC	14.3

For "O=C(Nc1ccccc1C(=O)O)c1cccc(F)c1" , write its inhibition.
3.35

Report measured inhibition; entry is "O=C1NN(c2ccccc2)C(=O)C1=Cc1ccccc1"
25.9

Fill in inhibition for record "CCn1c(=O)n(CC)c2cc(N3CCCC3)c(NC(=O)c3ccc(OC)c(Br)c3)cc21"
-2.72

Return value of inhibition for input COc1ccccc1C(C)NCC(=O)NCc1ccc(C)cc1 (centres undefined) , no commentary.
-3.92

Output measured inhibition for this item: "Cc1ccc(S(=O)(=O)Oc2ccccc2/C=N/NC(N)=S)cc1"
-0.7

Give inhibition for the following molecule: "Cc1ccc(NS(=O)(=O)Cc2ccccc2)nc1"
-2.96
